target: cynomolgus HER3-ECD-His (cynomolgus monkey) (UniProt G7PIG5); assay: ELISA on coated Cyno HER3
Sequence (G7PIG5 entry or part of it): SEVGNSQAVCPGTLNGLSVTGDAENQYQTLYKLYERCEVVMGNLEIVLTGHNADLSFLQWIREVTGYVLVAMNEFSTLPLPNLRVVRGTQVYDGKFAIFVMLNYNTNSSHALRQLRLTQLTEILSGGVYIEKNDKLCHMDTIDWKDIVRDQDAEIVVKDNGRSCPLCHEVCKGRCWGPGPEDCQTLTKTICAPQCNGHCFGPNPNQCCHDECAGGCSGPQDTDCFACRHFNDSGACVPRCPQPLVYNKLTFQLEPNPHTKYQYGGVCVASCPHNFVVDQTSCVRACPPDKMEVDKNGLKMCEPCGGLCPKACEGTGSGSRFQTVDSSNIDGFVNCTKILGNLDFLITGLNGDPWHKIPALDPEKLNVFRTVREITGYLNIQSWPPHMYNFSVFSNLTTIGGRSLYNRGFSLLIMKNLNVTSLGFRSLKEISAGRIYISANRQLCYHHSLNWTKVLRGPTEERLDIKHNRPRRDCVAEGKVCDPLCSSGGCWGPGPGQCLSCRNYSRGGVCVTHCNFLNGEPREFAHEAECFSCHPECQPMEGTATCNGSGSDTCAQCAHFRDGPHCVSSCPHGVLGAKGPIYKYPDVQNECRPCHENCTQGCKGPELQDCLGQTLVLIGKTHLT
PROPERTY_LABEL: OD450

Look up and state reported OD450 for mHE5 (antibody, V domains shown) VH: EVQLQESGPGLVKPSQSLSLTCSVTGYSITSGYYWNWIRQFPGNKLEWMGYISYDGSNNYNPSLKNRISITRDTSKNQFFLKLNSVTTEDTATYYCASYDYDGDWFAYWGQGTLVTVSA VL: DIVLTQSPASLAVSLGQRATISCRASESVDHYGSSFMHWYQQKPGQPPKLLIYRASNPESGIPARFSGSGSRTDFTLTINPVETDDVATYYCQQSNKDPPTFGGGTKLEIKR
1.82 OD450
